# key: entry, value: pEC50
Biological target: Potassium voltage-gated channel subfamily A member 1 (Homo sapiens, UniProt Q09470)
Assay: Inhibition of Kvbeta-1-mediated inactivation of Kv1.1 channel expressed in xenopus oocytes by voltage clamp assay
pEC50: −log10 of the molar value.
MEASURED QUANTITY: pEC50

[[record]]
molecule = "O=[N+]([O-])C1(Br)COC(c2ccccc2)OC1 (configuration not stated)"
number = 5.15

[[record]]
molecule = "CC1(C)OCC(Br)([N+](=O)[O-])CO1"
number = 5.37


###

Target: Voltage-gated potassium channel subfamily A member 1/beta-1 (Homo sapiens, UniProt Q09470+Q14722)
Sequence (Q09470 whole entry): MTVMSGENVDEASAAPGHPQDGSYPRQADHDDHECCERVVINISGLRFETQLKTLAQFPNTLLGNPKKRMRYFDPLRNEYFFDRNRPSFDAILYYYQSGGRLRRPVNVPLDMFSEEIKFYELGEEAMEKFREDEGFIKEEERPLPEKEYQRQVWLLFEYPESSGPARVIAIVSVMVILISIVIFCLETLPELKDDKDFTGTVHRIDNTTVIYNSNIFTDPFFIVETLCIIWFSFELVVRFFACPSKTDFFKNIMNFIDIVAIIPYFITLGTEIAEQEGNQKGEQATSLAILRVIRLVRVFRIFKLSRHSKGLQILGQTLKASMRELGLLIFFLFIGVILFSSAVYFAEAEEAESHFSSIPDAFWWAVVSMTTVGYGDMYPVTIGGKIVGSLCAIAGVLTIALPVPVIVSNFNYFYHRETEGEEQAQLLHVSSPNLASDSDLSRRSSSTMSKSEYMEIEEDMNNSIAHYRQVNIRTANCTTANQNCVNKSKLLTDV
Sequence (Q14722 whole entry): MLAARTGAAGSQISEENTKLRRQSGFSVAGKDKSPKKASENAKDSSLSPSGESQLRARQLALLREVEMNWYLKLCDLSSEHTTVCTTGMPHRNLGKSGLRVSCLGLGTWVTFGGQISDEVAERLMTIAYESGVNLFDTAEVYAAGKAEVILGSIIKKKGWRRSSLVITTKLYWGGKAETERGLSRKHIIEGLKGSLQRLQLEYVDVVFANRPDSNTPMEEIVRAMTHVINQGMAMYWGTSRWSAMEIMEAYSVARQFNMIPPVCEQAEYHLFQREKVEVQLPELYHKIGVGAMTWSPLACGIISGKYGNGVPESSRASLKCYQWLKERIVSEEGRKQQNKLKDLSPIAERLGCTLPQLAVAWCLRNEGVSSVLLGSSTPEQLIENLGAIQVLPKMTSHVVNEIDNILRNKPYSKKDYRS
Assay: Inhibition of Kv1.1/Kvbeta1 N terminal chimera channel inactivation expressed in xenopus oocytes by voltage clamp assay
MEASURED QUANTITY: EC50 (µM)

[[record]]
molecule = "O=[N+]([O-])C1(Br)COC(c2ccccc2)OC1 (configuration not stated)"
measured_quantity = "EC50"
unit_descriptor = "µM"
number = 8.9

[[record]]
molecule = "CC1(C)OCC(Br)([N+](=O)[O-])CO1"
measured_quantity = "EC50"
unit_descriptor = "µM"
number = 16.7


###

Target: UniProt:Q09470
Assay: Inhibition of Kvbeta-1-mediated inactivation of Kv1.1 channel expressed in xenopus oocytes at 50 uM by voltage clamp assay
Format: cell-based
Design: scale not given: the % may be the effect or the level left
Conditions: Oocyte
# key: entry, value: Activity
MEASURED QUANTITY: Activity

[[record]]
compound = "C[C@@]1(c2ccccc2)NC(=O)N(C(=O)C2=Cc3cc(Cl)ccc3OC2)C1=O"
measured_quantity = "Activity"
result = "18.8%"

[[record]]
compound = "O=C(Nc1ccc([N+](=O)[O-])cc1)C1C(=O)C2=C(CCCC2)C1=O"
measured_quantity = "Activity"
result = "96.3%"

[[record]]
compound = "CC1(c2ccccc2)NC(=O)N(C(=O)/C=C/c2ccc(F)cc2)C1=O (centres undefined)"
measured_quantity = "Activity"
result = "52.5%"

[[record]]
compound = "CC1(C)CC(=O)C(C(=O)Nc2cccc(C(F)(F)F)c2)C(=O)C1"
measured_quantity = "Activity"
result = "18.5%"


###

# key: entry, value: pEC50
Target: Potassium voltage-gated channel subfamily A member 4 (Homo sapiens, UniProt P22459)
Sequence (P22459 whole entry): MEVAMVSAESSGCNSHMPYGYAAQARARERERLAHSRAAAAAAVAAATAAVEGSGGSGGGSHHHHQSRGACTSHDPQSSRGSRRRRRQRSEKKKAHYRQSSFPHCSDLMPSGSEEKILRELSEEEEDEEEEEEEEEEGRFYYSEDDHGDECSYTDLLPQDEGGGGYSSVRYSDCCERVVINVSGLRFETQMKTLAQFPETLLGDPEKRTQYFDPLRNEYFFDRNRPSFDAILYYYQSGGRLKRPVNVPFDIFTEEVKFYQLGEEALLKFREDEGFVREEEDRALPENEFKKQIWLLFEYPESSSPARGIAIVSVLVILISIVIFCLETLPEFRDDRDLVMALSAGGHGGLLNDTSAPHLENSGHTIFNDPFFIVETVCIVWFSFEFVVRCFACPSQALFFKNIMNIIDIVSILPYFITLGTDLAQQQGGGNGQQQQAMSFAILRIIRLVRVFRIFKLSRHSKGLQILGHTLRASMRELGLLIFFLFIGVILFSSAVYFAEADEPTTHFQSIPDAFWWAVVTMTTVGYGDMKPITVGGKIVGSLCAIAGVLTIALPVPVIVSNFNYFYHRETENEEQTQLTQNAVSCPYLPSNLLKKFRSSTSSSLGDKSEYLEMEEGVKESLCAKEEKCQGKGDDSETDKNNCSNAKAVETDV
Assay: Inhibition of Kv1.4 channel inactivation expressed in xenopus oocytes by voltage clamp assay
pEC50: −log10 of the molar value.
MEASURED QUANTITY: pEC50

[[record]]
molecule = "CC1(C)OCC(Br)([N+](=O)[O-])CO1"
measured_quantity = "pEC50"
number = 5.64

[[record]]
molecule = "O=[N+]([O-])C1(Br)COC(c2ccccc2)OC1 (configuration not stated)"
measured_quantity = "pEC50"
number = 5.89


Value source: ChEMBL document CHEMBL1143977
